# targetDesc: UniProt:O60885
# protocol: BRD4 protein degradation inducing action in LNCaP cells (immunofluorescence, 6 hr)
# Format: cell-based
# assayConditions: anti-BRD4 fluorescence intensity
criterion met if DC50 is below 100 pM. criterion not met if not; exact matches included in criterion not met.

1. CCc1ccc(NS(=O)(=O)c2ccc(CNC(=O)c3ccc(-c4ccc(C5=N[C@@H](CC(=O)OC)c6nnc(C)n6-c6sc(C)c(C)c65)cc4)cc3)cc2)c2[nH]cc(C#N)c12 criterion not met
2. CCc1ccc(NS(=O)(=O)c2ccc(CNC(=O)c3ccc(-c4ccc(C5=N[C@@H](CC(=O)OC)c6nnc(C)n6-c6sc(C)c(C)c65)cc4)c(F)c3)cc2)c2[nH]cc(C#N)c12 criterion not met
3. CCc1ccc(NS(=O)(=O)c2ccc(CCNC(=O)c3ccc(-c4ccc(C5=N[C@@H](CC(=O)OC)c6nnc(C)n6-c6sc(C)c(C)c65)cc4)c(F)c3)cc2)c2[nH]cc(C#N)c12 criterion met
4. COC(=O)C[C@@H]1N=C(c2ccc(-c3cnc(C(=O)NCc4ccc(S(=O)(=O)Nc5ccc(C)c6c(C#N)c[nH]c56)cc4)cc3C)cc2)c2c(sc(C)c2C)-n2c(C)nnc21 criterion not met

Now consider the entry below.
DC50 strictly < 100 pM for this molecule? "COC(=O)C[C@@H]1N=C(c2ccc(-c3cnc(C(=O)N[C@H](C)c4ccc(S(=O)(=O)Nc5ccc(C)c6c(C#N)c[nH]c56)cc4)cn3)cc2)c2c(sc(C)c2C)-n2c(C)nnc21"
criterion met

---

# protocol: Maximum tolerated dose in rats (single tail vein administration)
# assayConditions: rat, in vivo, intravenous, male CD (SD) rats
# Procedure: The maximum tolerated dose (MTD) in rats was determined for the compound of the present invention.
experimentalEndpoint: MTD

Entry "COC(=O)C[C@@H]1N=C(c2ccc(-c3ccc(C(=O)NCc4ccc(S(=O)(=O)Nc5ccc(C)c6c(C#N)c[nH]c56)cc4)cc3)cc2)c2c(sc(C)c2C)-n2c(C)nnc21" has what MTD?
> 10 mg/kg

---

# targetDesc: BRD4 protein (Homo sapiens (Human))
# protocol: BRD4 protein degradation inducing action in LNCaP cells (immunofluorescence, 6 hr)
# Format: cell-based
# assayConditions: anti-BRD4 fluorescence intensity
Kindly state DC50 for each of the entries shown.
Numbers only, in nM.

1) CCc1ccc(NS(=O)(=O)c2ccc([C@@H](C)NC(=O)c3ccc(-c4ccc(C5=N[C@@H](CC(=O)OC)c6nnc(C)n6-c6sc(C)c(C)c65)cc4)cc3)cc2)c2[nH]cc(C#N)c12 0.024
2) Cc1sc2c(c1C)C(c1ccc(-c3ccc(C(=O)N[C@H](C)c4ccc(S(=O)(=O)Nc5ccc(C)c6c(C#N)c[nH]c56)cc4)cc3)cc1)=N[C@@H](CC(=O)OC(C)(C)C)c1nnc(C)n1-2 0.31

Would you mind giving DC50 for every molecule in the list below?
1. COC(=O)C[C@@H]1N=C(c2ccc(-c3ccc(C(=O)NCCc4ccc(S(=O)(=O)Nc5ccc(C)c6c(C#N)c[nH]c56)cc4)c(F)c3F)cc2)c2c(sc(C)c2C)-n2c(C)nnc21
2. COC(=O)C[C@@H]1N=C(c2ccc(-c3ccc(C(=O)NCCc4ccc(S(=O)(=O)Nc5ccc(C)c6c(C#N)c[nH]c56)cc4)c(Cl)c3)cc2)c2c(sc(C)c2C)-n2c(C)nnc21
3. CCc1ccc(NS(=O)(=O)c2ccc([C@@H](C)NC(=O)c3ccc(-c4ccc(C5=N[C@@H](CC(=O)OC)c6nnc(C)n6-c6sc(C)c(C)c65)cc4)c(F)c3F)cc2)c2[nH]cc(C#N)c12
4. COC(=O)C[C@@H]1N=C(c2ccc(-c3ccc(C(=O)N[C@H](C)c4ccc(S(=O)(=O)Nc5ccc(C)c6c(C#N)c[nH]c56)cc4)c(F)c3F)cc2)c2c(sc(C)c2C)-n2c(C)nnc21
5. COC(=O)C[C@@H]1N=C(c2ccc(-c3ccc(C(=O)NCc4ccc(S(=O)(=O)Nc5ccc(C)c6c(C#N)c[nH]c56)cc4)cc3)cc2)c2c(sc(CO)c2C)-n2c(C)nnc21
6. COC(=O)C[C@@H]1N=C(c2ccc(-c3ccc(C(=O)NCCc4ccc(S(=O)(=O)Nc5ccc(C)c6c(C#N)c[nH]c56)cc4)cc3F)cc2)c2c(sc(C)c2C)-n2c(C)nnc21
7. COC(=O)C[C@@H]1N=C(c2ccc(-c3ccc(C(=O)NCc4ccc(S(=O)(=O)Nc5ccc(OC)c6c(C#N)c[nH]c56)cc4)cc3)cc2)c2c(sc(C)c2C)-n2c(C)nnc21
8. Cc1sc2c(c1C)C(c1ccc(-c3ccc(C(=O)NCc4ccc(S(=O)(=O)Nc5ccc(C)c6c(C#N)c[nH]c56)cc4)c(Cl)c3)cc1)=N[C@@H](CC(=O)OC(C)(C)C)c1nnc(C)n1-2

1. 0.085
2. 0.41
3. 0.14
4. 0.091
5. 1.4
6. 0.11
7. 0.22
8. 0.38

Would you mind giving DC50 for every molecule in the list below?
1. COC(=O)C[C@@H]1N=C(c2ccc(-c3ccc(C(=O)NCCc4ccc(S(=O)(=O)Nc5ccc(C)c6c(C#N)c[nH]c56)cc4)nc3)cc2)c2c(sc(C)c2C)-n2c(C)nnc21
2. COC(=O)C[C@@H]1N=C(c2ccc(-c3cc(C)c(C(=O)N[C@H](C)c4ccc(S(=O)(=O)Nc5ccc(C)c6c(C#N)c[nH]c56)cc4)cc3F)cc2)c2c(sc(C)c2C)-n2c(C)nnc21

[0.091, 0.098]

Would you mind giving DC50 for every molecule in the list below?
1. COC(=O)C[C@@H]1N=C(c2ccc(-c3ccc(C(=O)N[C@H](C)c4ccc(S(=O)(=O)Nc5ccc(C)c6c(C#N)c[nH]c56)cc4)c(C)c3)cc2)c2c(sc(C)c2C)-n2c(C)nnc21
2. COC(=O)C[C@@H]1N=C(c2ccc(-c3ccc(C(=O)NCC#Cc4ccc(S(=O)(=O)Nc5ccc(C)c6c(C#N)c[nH]c56)cc4)cc3)cc2)c2c(sc(C)c2C)-n2c(C)nnc21
3. Cc1sc2c(c1C)C(c1ccc(-c3ccc(C(=O)NCc4ccc(S(=O)(=O)Nc5ccc(C)c6c(C#N)c[nH]c56)cc4)c(F)c3)cc1)=N[C@@H](CC(=O)OC(C)(C)C)c1nnc(C)n1-2
4. CCc1ccc(NS(=O)(=O)c2ccc([C@@H](C)NC(=O)c3ccc(-c4ccc(C5=N[C@@H](CC(=O)OC(C)(C)C)c6nnc(C)n6-c6sc(C)c(C)c65)cc4)cc3)cc2)c2[nH]cc(C#N)c12
5. Cc1sc2c(c1C)C(c1ccc(-c3ccc(C(=O)NCc4ccc(S(=O)(=O)Nc5ccc(C)c6c(C#N)c[nH]c56)cc4)nn3)cc1)=N[C@@H](CC(=O)OC(C)(C)C)c1nnc(C)n1-2
6. COC(=O)C[C@@H]1N=C(c2ccc(-c3ccc(C(=O)NCCc4ccc(S(=O)(=O)Nc5ccc(C)c6c(C#N)c[nH]c56)cc4)cc3Cl)cc2)c2c(sc(C)c2C)-n2c(C)nnc21
7. CCc1ccc(NS(=O)(=O)c2ccc(CNC(=O)c3ccc(-c4ccc(C5=N[C@@H](CC(=O)OC)c6nnc(C)n6-c6sc(C)c(C)c65)cc4)cn3)cc2)c2[nH]cc(C#N)c12

0.059
5.9
0.25
0.25
0.12
0.3
0.069

---

# System: human uterine sarcoma MES-SA cell
# protocol: Cytotoxic action on MES-SA cells (WST-8, 96 hr)
# Type: cell-based
experimentalEndpoint: IC50 (nM)
Answers are plain numbers, in nM.

Form: Entry = "COC(=O)C[C@@H]1N=C(c2ccc(-c3ccc(C(=O)NCc4ccc(S(=O)(=O)Nc5ccc(C)c6c(C#N)c[nH]c56)cc4)cc3)cc2)c2c(sc(C)c2C)-n2c(C)nnc21" | System = human uterine sarcoma MES-SA cell | IC50 = ____
1.8

---

# targetDesc: BRD4 protein (Homo sapiens (Human), UniProt O60885)
# protocol: BRD4 protein degradation inducing action in LNCaP cells (immunofluorescence, 6 hr)
# Type: cell-based
# assayConditions: anti-BRD4 fluorescence intensity
experimentalEndpoint: DC50 (nM)
Answers are plain numbers, in nM.

molecule	targetDesc	DC50 [nM]
COC(=O)C[C@@H]1N=C(c2ccc(-c3ccc(C(=O)NCc4ccc(S(=O)(=O)Nc5ccc(C)c6c(C#N)c[nH]c56)cc4)c(OC)c3)cc2)c2c(sc(C)c2C)-n2c(C)nnc21 [Example 52]	BRD4 protein (Homo sapiens (Human), UniProt O60885)	0.3
COC(=O)C[C@@H]1N=C(c2ccc(C#CC(=O)NCc3ccc(S(=O)(=O)Nc4ccc(C)c5c(C#N)c[nH]c45)cc3)cc2)c2c(sc(C)c2C)-n2c(C)nnc21 [Example 5]	BRD4 protein (Homo sapiens (Human), UniProt O60885)	15
Cc1sc2c(c1C)C(c1ccc(-c3ccc(C(=O)NCc4ccc(S(=O)(=O)Nc5ccc(C)c6c(C#N)c[nH]c56)cc4)c(F)c3F)cc1)=N[C@@H](CC(=O)OC(C)(C)C)c1nnc(C)n1-2 [Example Compound 138]	BRD4 protein (Homo sapiens (Human), UniProt O60885)	0.32

Would you mind giving DC50 for every molecule in the list below?
1. COC(=O)C[C@@H]1N=C(c2ccc(-c3cc(F)c(C(=O)NCc4ccc(S(=O)(=O)Nc5ccc(C)c6c(C#N)c[nH]c56)cc4)cc3F)cc2)c2c(sc(C)c2C)-n2c(C)nnc21 [Example 82]
2. CCc1ccc(NS(=O)(=O)c2ccc(CNC(=O)c3cc(F)c(-c4ccc(C5=N[C@@H](CC(=O)OC)c6nnc(C)n6-c6sc(C)c(C)c65)cc4)cc3F)cc2)c2[nH]cc(C#N)c12 [Example Compound 119]

[0.25, 0.27]

Would you mind giving DC50 for every molecule in the list below?
1. Cc1cc(-c2ccc(C3=N[C@@H](CC(=O)OC(C)(C)C)c4nnc(C)n4-c4sc(C)c(C)c43)cc2)ccc1C(=O)NCc1ccc(S(=O)(=O)Nc2ccc(C)c3c(C#N)c[nH]c23)cc1 [Example Compound 141]
2. COC(=O)C[C@@H]1N=C(c2ccc(-c3ccc(C(=O)NCCc4ccc(S(=O)(=O)Nc5ccc(C)c6c(C#N)c[nH]c56)cc4)cc3C)cc2)c2c(sc(C)c2C)-n2c(C)nnc21 [Example 89]
3. Cc1sc2c(c1C)C(c1ccc(-c3ccc(C(=O)NCc4ccc(S(=O)(=O)Nc5ccc(C)c6c(C#N)c[nH]c56)cc4)nc3)cc1)=N[C@@H](CC(=O)OC(C)(C)C)c1nnc(C)n1-2 [Example Compound 145]
4. CCc1ccc(NS(=O)(=O)c2ccc(CCNC(=O)c3ccc(-c4ccc(C5=N[C@@H](CC(=O)OC(C)(C)C)c6nnc(C)n6-c6sc(C)c(C)c65)cc4)cc3)cc2)c2[nH]cc(C#N)c12 [Example Compound 137]

1. 0.47
2. 0.8
3. 0.17
4. 0.13

Entry COC(=O)C[C@@H]1N=C(c2ccc(-c3cnc(C(=O)NCc4ccc(S(=O)(=O)Nc5ccc(C)c6c(C#N)c[nH]c56)cc4)c(F)c3)cc2)c2c(sc(C)c2C)-n2c(C)nnc21 [Example 77] has what DC50?
0.048
